System name: VIM-1 (Pseudomonas aeruginosa)
Assay protocol: biochemical
pIC50: −log10 of the molar value.
Assay endpoint: pIC50

>>> print(df.to_string())
                                   compound                     system_name  observed_measurement
0  O=S(=O)([O-])CC(S)CS.[Na+] (racemic) [DMPS, sodium salt]  VIM-1 (Pseudomonas aeruginosa)                  3.74

====

System name: IMP-1 (Serratia marcescens, UniProt P52699)
pIC50: −log10 of the molar value.
Assay endpoint: pIC50

>>> print(df.to_string())
                                   molecule  observed_measurement
0  O=S(=O)([O-])CC(S)CS.[Na+] (racemic) [DMPS, sodium salt]                  4.15

====

System name: NDM-4 (Escherichia coli)
Assay protocol: In-vitro inhibition of purified metallo-ß-lactamase, UV spectrophotometry
Assay endpoint: IC50 (µM)

In [3]: df
Out[3]:
                                   compound  observed_measurement
0  O=S(=O)([O-])CC(S)CS.[Na+] (racemic) [DMPS, sodium salt]                   110
